- Condition: buffer; pH 7.4; 200.0 µM
Value Kind: solubility kinetic

> print(dat)
                                   compound          value.kind        result
1  O=C(NCc1ccco1)c1ccc(NS(=O)(=O)c2cccc(F)c2)cc1  solubility kinetic  > 56.2 µg/mL
2        Cc1c(NC(=O)CSCc2ccccc2)cccc1C(=O)O  solubility kinetic  > 47.3 µg/mL
3  CSc1nc(SC(C)C(=O)O)c2c3c(sc2n1)COC(C)(C)C3 (stereo not given)  solubility kinetic  > 55.6 µg/mL
4  COC(=O)Cc1c(O)ccn(Cc2ccc(Cl)c(Cl)c2)c1=O  solubility kinetic  > 51.3 µg/mL
5        Cc1ccc(NC(=O)Nc2ccc3c(c2)CCC3)cc1C  solubility kinetic   < 0.3 µg/mL
6         CNc1nc(-c2cccs2)cc(C(F)(F)F)c1C#N  solubility kinetic   < 0.2 µg/mL
7          CC(C)CNC(=O)COC(=O)c1ccc(F)cc1Cl  solubility kinetic  > 43.2 µg/mL
8  COc1ccc(C2NC(=O)C(C#N)=C(S)N2c2ccccc2)cc1OC (stereo not given)  solubility kinetic  > 55.1 µg/mL
9  O=c1[nH]c(=O)n(Cc2ccco2)c(O)c1C=NCCN1CCNCC1  solubility kinetic  > 52.1 µg/mL

Pending compound:
solubility kinetic in this record for NS(=O)(=O)c1ccc(CCNC(=O)CN2CCN(S(=O)(=O)c3ccccc3F)CC2)cc1 : > 72.7 µg/mL

* * *

- Condition: buffer; pH 7.4; 200.0 µM
Value Kind: solubility kinetic

Recorded solubility kinetic (compound CCOC(=O)c1csc(NC(=O)C2=COCCO2)n1 ): > 42.6 µg/mL

compound N#Cc1cccc(NC(=O)Cc2ccccc2)c1 , solubility kinetic observed: > 35.4 µg/mL

Value of solubility kinetic reported for the compound CCc1nnc(NC(=O)c2ccc(C)o2)s1 is > 35.6 µg/mL

* * *

Readings of solubility kinetic for the listed compounds
- Condition: buffer; pH 7.4; 200.0 µM

> print(dat)
                      compound        result
1  O=S(=O)(CCN1CCOCC1)c1ccccc1  > 38.3 µg/mL

GET /value?item= COc1ccc(N/C=C/C(=O)c2ccccc2)cc1 &field=solubility kinetic returns < 0.5 µg/mL

The value of solubility kinetic measured for the compound Cc1ccc(CN(C)C(=O)c2cccc(S(=O)(=O)N3CCCC3)c2)o1 turned out to be > 54.4 µg/mL

Per the records, this compound ( O=C(Cc1ccc([N+](=O)[O-])cc1)OCc1c(F)cccc1Cl ) has solubility kinetic equal to < 0.7 µg/mL

The measured solubility kinetic associated with CN(C(=O)COC(=O)Cc1ccccc1[N+](=O)[O-])C1CCS(=O)(=O)C1 (stereo unspecified) reads > 55.6 µg/mL

The recorded solubility kinetic for entry NC(=O)C1CCN(C(=O)c2cc3ccccc3cc2O)CC1 equals > 44.8 µg/mL

* * *

- Condition: buffer; pH 7.4; 200.0 µM
Value Kind: solubility kinetic (µg/mL)
Reply with just the number (in µg/mL).

Consider the reported solubility kinetic for these compounds:
> print(dat)
                                   compound  result.number
1  CCOc1ccc(Nc2ccc([N+](=O)[O-])c3nonc23)cc1           15.2
2       COc1ccc(CCNC(=S)NC(=O)c2ccccc2)cc1C            0.8
3  O=C(Nc1cc(Cl)ccc1Cl)C1Cc2ccccc2O/C1=N\O (centres undefined)            2.8
4      CCCC(=O)Nc1ccc(S(=O)(=O)Nc2nccs2)cc1           30.4
5  CC1CCN(S(=O)(=O)c2ccc(NC(=O)C3CC3)cc2)CC1           37.2
6  O=C(CCC(=O)N1CCN(S(=O)(=O)c2ccccc2)CC1)c1ccc(Br)cc1            6.9
7    CC(=O)c1cccc(N=Cc2c(O)c3ccccc3oc2=O)c1           11.2
8  CCN(Cc1ccc(Cl)s1)C(=O)c1cccc(OCc2c(C)noc2C)c1           16.4

The compound CC(C)CCNC1c2ccccc2C(=O)N1Cc1ccccc1.Cl (centres undefined) showed solubility kinetic equal to 6.2

According to the records, this compound COc1cc(NC(=O)c2cccc(S(=O)(=O)N3CCCCC3)c2)cc(OC)c1OC displays solubility kinetic of 7.2

get_value(item= NS(=O)(=O)c1ccc(NC(=O)CNC(=O)c2ccc3c(c2)OCO3)cc1 , readout=solubility kinetic) returns 10

So for COc1ccc(NC(=O)C2CCCN(c3nccc(C)n3)C2)cc1 (centres undefined) , the logged solubility kinetic turned out to be 3.8

response.value for O=c1[nH]c2ccc(NC(=S)NCc3ccccc3)cc2[nH]1 (field: solubility kinetic) = 7.6

Kindly note the recorded solubility kinetic for O=C(COc1ccccc1F)Nc1ccc2[nH]c(=O)[nH]c2c1 , which is 4.5

Record NS(=O)(=O)c1ccc(NC(=O)/C=C/c2ccco2)cc1 . Reported solubility kinetic: 36.3

The compound N/C(=N\OC(=O)c1ccc(Cl)c(Cl)c1)c1cccc(CSc2ccccn2)c1 showed solubility kinetic equal to 0.9

Given item O=C(Nc1ccccc1)N1CCCC1c1cccs1 (centres undefined) , the value recorded as its solubility kinetic is 39.9

solubility kinetic in this record for O=C(NC(=S)Nc1ccccc1Br)C1CCCCC1 : 2.2

Data point: CC(C)c1ccc(CNC(=O)CCc2ccccc2)cc1 ; solubility kinetic = 31.2

What the record says about CCCCCC(=O)Nc1ccc(-c2csc(N)n2)cc1 : solubility kinetic is 5.9

* * *

- Condition: buffer; pH 7.4; 200.0 µM
Value Kind: solubility kinetic

Past entries and their recorded results:
> print(dat)
                                   compound          result
1         Cn1c(Nc2ccc(Cl)cc2)cc(=O)n(C)c1=O  > 0.0399 mg/mL
2    O=C(CCNC(=O)c1ccco1)NCc1ccc(C(=O)O)cc1  > 0.0474 mg/mL
3  Cc1cc(Cl)ccc1NC(=S)NCC(O)c1ccccc1 (stereo unspecified)  > 0.0481 mg/mL
4     O=C(CCC(=O)N1CCN(c2ccccn2)CC1)c1cccs1  > 0.0494 mg/mL
5     Cl.NCCOc1ccc(C23CC4CC(CC(C4)C2)C3)cc1  > 0.0462 mg/mL
6  CCO/C=C1/C(=O)N(c2ccccc2OC)C(=O)c2ccccc21  > 0.0485 mg/mL

Noted for Cn1c(=O)c(C(=O)NCc2ccccc2)c(O)c2ccccc21 : its solubility kinetic reads < 0.0003 mg/mL

Briefly, solubility kinetic measured for O=C(c1cccc([N+](=O)[O-])c1)N1CCCC(C(=O)N2CCCCCC2)C1 (stereo unspecified) : > 0.0539 mg/mL

Entry CC(=O)NC(c1ccc(C(C)C)cc1)c1c(O)ccc2ccccc12 (stereo unspecified) ; solubility kinetic = < 0.0007 mg/mL

Form: compound = CC1N=C(c2ccccc2)c2cc(Br)ccc2NC1=O (stereo unspecified) ; solubility kinetic = > 0.0494 mg/mL

# solubility kinetic of Fc1ccc(-n2cc(-c3ccccc3)c3c(=S)nc[nH]c32)cc1 = < 0.0002 mg/mL

* * *

Reported solubility kinetic values are given for each entry in this list.
- Condition: buffer; pH 7.4; 200.0 µM

> print(dat)
                           molecule.smiles          result
1  CNC(=O)CSc1nnc(-c2ccco2)n1-c1cccc(C)c1C  > 0.0514 mg/mL

Entry COc1ccc2[nH]cc(CCN3C(=O)c4ccc(C(=O)O)cc4C3=O)c2c1 , solubility kinetic reported as > 0.0547 mg/mL

The recorded solubility kinetic for entry O=C(C[n+]1ccccc1)N1CCCc2ccccc21.[Cl-] equals > 0.0433 mg/mL

Entry under test: CC(C)(C)c1ccc(C(=S)N2CCN(c3ccccc3)CC2)cc1 . Its solubility kinetic was < 0.0004 mg/mL

Measured solubility kinetic of O=C(NNC(=O)C1CCN(c2ncccn2)CC1)c1ccncc1 : > 0.049 mg/mL

* * *

// solubility kinetic lookup, one value per entry
- Condition: buffer; pH 7.4; 200.0 µM

Worked cases, solubility kinetic given:
> print(dat)
                                   compound          value.kind        result
1              COc1ccc(CCC(=O)NC2CCCCC2)cc1  solubility kinetic  > 39.2 µg/mL
2  CCOC(=O)c1ccc(NC(=O)c2ccc[n+]([O-])c2)cc1  solubility kinetic  > 42.9 µg/mL
3  CCCn1c(=O)c(C(=O)Nc2ccccc2C)c(O)c2ccccc21  solubility kinetic   < 0.4 µg/mL
4  CCNC(=O)c1ccc(NS(=O)(=O)c2ccc3[nH]c(=O)[nH]c3c2)cc1  solubility kinetic  > 54.1 µg/mL

Memo: N#CCC(=O)Nc1ccc(C(=O)NCc2ccccn2)cc1 , reported solubility kinetic: > 44.1 µg/mL

The value of solubility kinetic measured for the compound CC(C)n1c(SCC(=O)NC2CCCCC2)nnc1-c1ccco1 turned out to be > 52.3 µg/mL

Field solubility kinetic (entry CCOc1ccccc1OCCC(=O)Nc1ccc2c(c1)OCO2 ) reads > 49.4 µg/mL

Measured solubility kinetic of Nc1ncnc(Nc2ccccc2)n1 : > 28.1 µg/mL

In plain terms, O=C(CCS(=O)(=O)c1ccccc1)NCc1ccccc1 has a documented solubility kinetic of > 45.5 µg/mL

Data point: O=C1c2ccccc2C(=O)N1OS(=O)(=O)c1ccc(F)cc1 ; solubility kinetic = > 48.2 µg/mL

GET /value?item= CC1CCCN(C(=O)CN2C(=O)NC(C)(c3ccc4ccccc4c3)C2=O)C1 (stereo unspecified) &field=solubility kinetic returns > 56.9 µg/mL

# solubility kinetic of COc1ccc(CNS(=O)(=O)NCc2ccccc2F)cc1 = 22.3 µg/mL

Input CC(C)CNc1nc(N)c([N+](=O)[O-])c(NC2CCCCC2)n1 . Output solubility kinetic: < 0.1 µg/mL

response.value for CC1CN(S(=O)(=O)c2ccc(C(=O)O)cc2)CC(C)O1 (stereo unspecified) (field: solubility kinetic) = > 44.9 µg/mL
